Data provenance is the supplement of paper PMC10567573.

Recorded measurements of protein stability index, one per entry
B1: FAM189A2 (parent)
chain: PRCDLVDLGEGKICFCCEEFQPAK

Variants of: B1
Assay: protein stability index of a GFP-peptide fusion (GPS, HEK-293T) (PSI 1-6); higher = more stable;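 also: lentivirally expressed fusions sorted by FACS into six bins by GFP to DsRed ratio, PSI derived from sequencing read proportions per bin multiplied by bin number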
Settings: c terminus: a fixed tail appended
Hey, just send me the number, nothing else.

Here is how some variants turned out for protein stability index.
mutation_spec=A23N quantity_measured="protein stability index" numeric_readout=3.15
mutation_spec=P22W quantity_measured="protein stability index" numeric_readout=3.08
mutation_spec=A23Y quantity_measured="protein stability index" numeric_readout=2.28
mutation_spec=G9Q quantity_measured="protein stability index" numeric_readout=2.33
mutation_spec=L8G quantity_measured="protein stability index" numeric_readout=4.48

Identify protein stability index associated with the variant "E10G"
3
